Tested on: CEM cells
experimentSummary: Morphology by microscopy (mitotic arrest, apoptosis, necrosis)
Type: cell-based, human
experimentalParameters: CEM leukemic cells, % of affected cells

compound	Activities of inducing Necrosis
NC(=O)NC(=O)c1cccc(NC(=O)CCl)c1	− (−:<10%)
NC(=O)NC(=O)c1cccc(NC(=O)CBr)c1	− (−:<10%)
CCOC(=O)c1cccc(NC(=O)CBr)c1 [Compound 11, Ethyl-3-bromoacetoamido, benzoate]	− (−:<10%)

###

Tested on: CEM cells
experimentSummary: Morphology by microscopy (mitotic arrest, apoptosis, necrosis)
Format: cell-based, human
experimentalParameters: CEM leukemic cells, % of affected cells

molecule	Activities of inducing Mitotic block
CCOC(=O)c1cccc(NC(=O)CBr)c1 [Compound 11, Ethyl-3-bromoacetoamido, benzoate]	− (−:<10%)
NC(=O)NC(=O)c1ccc(NC(=O)CBr)cc1 [Compound 4-BAABU, 4-bromoacetylamino benzoylurea]	− (−:<10%)
